tested-on: T1, EsCas13d, nuclease-dead (Eubacterium siraeum, UniProt B0MS50, R295A;H300A;R849A;H854A)
T1 sequence: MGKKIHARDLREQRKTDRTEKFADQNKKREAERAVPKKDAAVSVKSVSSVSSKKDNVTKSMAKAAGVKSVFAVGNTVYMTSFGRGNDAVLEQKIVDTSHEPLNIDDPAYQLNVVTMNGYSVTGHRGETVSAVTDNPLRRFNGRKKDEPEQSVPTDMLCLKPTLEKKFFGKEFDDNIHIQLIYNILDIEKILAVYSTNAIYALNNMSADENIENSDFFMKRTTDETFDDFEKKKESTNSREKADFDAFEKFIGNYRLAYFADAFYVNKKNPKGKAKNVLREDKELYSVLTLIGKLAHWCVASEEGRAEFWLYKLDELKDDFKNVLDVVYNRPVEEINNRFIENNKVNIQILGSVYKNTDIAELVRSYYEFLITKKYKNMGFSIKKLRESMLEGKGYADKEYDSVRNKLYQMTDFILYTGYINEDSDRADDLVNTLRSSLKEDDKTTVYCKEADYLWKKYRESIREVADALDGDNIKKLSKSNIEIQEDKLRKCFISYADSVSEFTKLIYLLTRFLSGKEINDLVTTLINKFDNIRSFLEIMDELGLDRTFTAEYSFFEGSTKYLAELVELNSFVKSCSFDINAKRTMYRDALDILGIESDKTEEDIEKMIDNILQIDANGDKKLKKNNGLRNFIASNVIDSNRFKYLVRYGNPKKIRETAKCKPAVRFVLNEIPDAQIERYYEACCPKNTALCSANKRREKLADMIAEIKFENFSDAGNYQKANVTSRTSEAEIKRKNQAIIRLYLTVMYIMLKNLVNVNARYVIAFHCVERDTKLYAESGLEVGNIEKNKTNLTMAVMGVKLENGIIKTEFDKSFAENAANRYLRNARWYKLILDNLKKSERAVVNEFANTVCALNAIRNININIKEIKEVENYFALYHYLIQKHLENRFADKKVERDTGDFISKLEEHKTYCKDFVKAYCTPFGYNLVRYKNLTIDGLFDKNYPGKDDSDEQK
test-description: crRNA (strand 1, pre-loaded); Mg2+; 40 mM Tris-HCl pH 7.5, 150 mM NaCl, 6 mM MgCl2, 1 mM DTT, 0.1% Tween-20, 0.2 mg/ml BSA; 25 C; 10 min per concentration, then washed
particulars: tags: His6-TwinStrep-SUMO cleaved; N-terminal SNAP kept (SNAP-Surface 488); label: 3' end held by stalled T7 RNA polymerase
measure: log10(Kd) (log10 of the value in nM)
Units before log transform: nM; reported quantity: Kd; transform: log10.

# binder, log10(Kd)
data = [
    ("target 2 MT 5'PFS UAG 3'PFS AUG (mixed) RNA 1: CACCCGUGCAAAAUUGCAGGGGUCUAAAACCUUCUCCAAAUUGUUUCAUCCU RNA 2: GGGAAUGGAUCCACAUCUACGAAUUCUAGAGGAUGAAACAAUUUGGAGAAGAUGAGAUCGGAAGAGCACACGU", 0.51),
    ("target 1 insA 3' of 12,insC 3' of 12 (mixed) RNA 1: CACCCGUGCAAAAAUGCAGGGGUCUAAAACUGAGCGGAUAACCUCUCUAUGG RNA 2: GGGAAUGGAUCCACAUCUACGAAUUCGUACCAUAGAGAGGACUUAUCCGCUCACCGAGAUCGGAAGAGCACACGU", 1.48),
    ("target 1 MT 5'PFS UGU 3'PFS CUA (mixed) RNA 1: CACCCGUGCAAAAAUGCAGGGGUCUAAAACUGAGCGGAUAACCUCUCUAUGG RNA 2: GGGAAUGGAUCCACAUCUACGAAUUCUGUCCAUAGAGAGGUUAUCCGCUCACUAAGAUCGGAAGAGCACACGU", 1.69),
]

// next entry
Please give the documented log10(Kd) of target 3 insC 3' of 5,insC 3' of 2 (mixed) RNA 1: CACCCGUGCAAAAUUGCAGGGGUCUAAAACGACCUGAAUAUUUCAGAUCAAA RNA 2: GGGAAUGGAUCCACAUCUACGAAUUCGUUUUUGAUCUGAAAUAUUCACGGUCCUGCAGAUCGGAAGAGCACACGU
1.00
